experiment-notes: Analyte stability in brain homogenate
Type: physicochemical, human
run-conditions: 22 h, HQC 400.0 nM
measurement-kind: Processed sample stability, Accuracy (%)
One number for each entry, in %.

{"columns": ["smiles-notation", "Processed sample stability, Accuracy, %"],
 "data": [
  ["Cn1nccc1Nc1nccc(-c2cc3c(s2)C(C)(C)N(CCN2CCOCC2)C3=O)n1", 102.3],
  ["CCN1CCN(Cc2ccc(Nc3ncc(F)c(-c4cc(F)c5nc(CO)n(C(C)C)c5c4)n3)nc2)CC1", 97.8],
  ["Cc1nc2c(F)cc(-c3nc(Nc4ccc(CN5CCNCC5)cn4)ncc3F)cc2n1C(C)C", 100.2]
]}

// next entry
Consider `CCN1CCN(Cc2ccc(Nc3ncc(F)c(-c4cc(F)c5nc(C)n(C(C)C)c5c4)n3)nc2)CC1` . Its measured Processed sample stability, Accuracy is 99.6

###

experiment-notes: Analyte stability in brain homogenate
Assay type: physicochemical, human
run-conditions: 3 cycles, HQC 400.0 nM
measurement-kind: Freeze-thaw stability, Accuracy (%)
Give bare numbers, in %.

Completed entries (count: 3):
{"columns": ["smiles-notation", "measurement-kind", "value-measured"],
 "data": [
  ["Cn1nccc1Nc1nccc(-c2cc3c(s2)C(C)(C)N(CCN2CCOCC2)C3=O)n1", "Freeze-thaw stability, Accuracy", 103.2],
  ["CCN1CCN(Cc2ccc(Nc3ncc(F)c(-c4cc(F)c5nc(C)n(C(C)C)c5c4)n3)nc2)CC1", "Freeze-thaw stability, Accuracy", 106.8],
  ["CCN1CCN(Cc2ccc(Nc3ncc(F)c(-c4cc(F)c5nc(CO)n(C(C)C)c5c4)n3)nc2)CC1", "Freeze-thaw stability, Accuracy", 108.7]
]}

--- query ---
Entry `Cc1nc2c(F)cc(-c3nc(Nc4ccc(CN5CCNCC5)cn4)ncc3F)cc2n1C(C)C` , Freeze-thaw stability, Accuracy reported as 101.3

###

Please go through the items and note down their Autosampler stability (5 °C), Accuracy.
experiment-notes: Analyte stability in brain homogenate
Format: physicochemical, human
run-conditions: 96 h, LQC 0.6 nM
Answers are plain numbers, in %.

Below are worked cases with known answers.
{"columns": ["compound", "Autosampler stability (5 °C), Accuracy, %"],
 "data": [
  ["CCN1CCN(Cc2ccc(Nc3ncc(F)c(-c4cc(F)c5nc(C)n(C(C)C)c5c4)n3)nc2)CC1 [Abemaciclib]", 108.3],
  ["CCN1CCN(Cc2ccc(Nc3ncc(F)c(-c4cc(F)c5nc(CO)n(C(C)C)c5c4)n3)nc2)CC1 [M20]", 101.9],
  ["Cc1nc2c(F)cc(-c3nc(Nc4ccc(CN5CCNCC5)cn4)ncc3F)cc2n1C(C)C [M2]", 102.4]
]}

Query Cn1nccc1Nc1nccc(-c2cc3c(s2)C(C)(C)N(CCN2CCOCC2)C3=O)n1 [LY3214996] yields Autosampler stability (5 °C), Accuracy of 111.2

###

experiment-notes: Equilibrium dialysis, fraction unbound in plasma
Format: in vitro ADME, human
run-conditions: pH 7.4; pooled human plasma spiked at 20 and 200 nM; 16 h equilibrium dialysis; read-out: Fraction unbound (fu), Plasma (pooled)
Field: fraction unbound at 16 h. Provide a value for each of the compounds that follow.

{"columns": ["smiles-notation", "value-measured"],
 "data": [
  ["CCN1CCN(Cc2ccc(Nc3ncc(F)c(-c4cc(F)c5nc(CO)n(C(C)C)c5c4)n3)nc2)CC1", 0.024]
]}

I would be grateful if you could provide fraction unbound at 16 h for each of the following entries.
1. Cc1nc2c(F)cc(-c3nc(Nc4ccc(CN5CCNCC5)cn4)ncc3F)cc2n1C(C)C
2. CCN1CCN(Cc2ccc(Nc3ncc(F)c(-c4cc(F)c5nc(C)n(C(C)C)c5c4)n3)nc2)CC1
3. Cn1nccc1Nc1nccc(-c2cc3c(s2)C(C)(C)N(CCN2CCOCC2)C3=O)n1

1. 0.052
2. 0.026
3. 0.372

Just for reference, paper PMC9463526 is where these values come from.
